tested target: NR1/NR2B (Homo sapiens (Human), UniProt Q05586+Q13224)
Sequence (Q13224 27-1484, other chains not shown): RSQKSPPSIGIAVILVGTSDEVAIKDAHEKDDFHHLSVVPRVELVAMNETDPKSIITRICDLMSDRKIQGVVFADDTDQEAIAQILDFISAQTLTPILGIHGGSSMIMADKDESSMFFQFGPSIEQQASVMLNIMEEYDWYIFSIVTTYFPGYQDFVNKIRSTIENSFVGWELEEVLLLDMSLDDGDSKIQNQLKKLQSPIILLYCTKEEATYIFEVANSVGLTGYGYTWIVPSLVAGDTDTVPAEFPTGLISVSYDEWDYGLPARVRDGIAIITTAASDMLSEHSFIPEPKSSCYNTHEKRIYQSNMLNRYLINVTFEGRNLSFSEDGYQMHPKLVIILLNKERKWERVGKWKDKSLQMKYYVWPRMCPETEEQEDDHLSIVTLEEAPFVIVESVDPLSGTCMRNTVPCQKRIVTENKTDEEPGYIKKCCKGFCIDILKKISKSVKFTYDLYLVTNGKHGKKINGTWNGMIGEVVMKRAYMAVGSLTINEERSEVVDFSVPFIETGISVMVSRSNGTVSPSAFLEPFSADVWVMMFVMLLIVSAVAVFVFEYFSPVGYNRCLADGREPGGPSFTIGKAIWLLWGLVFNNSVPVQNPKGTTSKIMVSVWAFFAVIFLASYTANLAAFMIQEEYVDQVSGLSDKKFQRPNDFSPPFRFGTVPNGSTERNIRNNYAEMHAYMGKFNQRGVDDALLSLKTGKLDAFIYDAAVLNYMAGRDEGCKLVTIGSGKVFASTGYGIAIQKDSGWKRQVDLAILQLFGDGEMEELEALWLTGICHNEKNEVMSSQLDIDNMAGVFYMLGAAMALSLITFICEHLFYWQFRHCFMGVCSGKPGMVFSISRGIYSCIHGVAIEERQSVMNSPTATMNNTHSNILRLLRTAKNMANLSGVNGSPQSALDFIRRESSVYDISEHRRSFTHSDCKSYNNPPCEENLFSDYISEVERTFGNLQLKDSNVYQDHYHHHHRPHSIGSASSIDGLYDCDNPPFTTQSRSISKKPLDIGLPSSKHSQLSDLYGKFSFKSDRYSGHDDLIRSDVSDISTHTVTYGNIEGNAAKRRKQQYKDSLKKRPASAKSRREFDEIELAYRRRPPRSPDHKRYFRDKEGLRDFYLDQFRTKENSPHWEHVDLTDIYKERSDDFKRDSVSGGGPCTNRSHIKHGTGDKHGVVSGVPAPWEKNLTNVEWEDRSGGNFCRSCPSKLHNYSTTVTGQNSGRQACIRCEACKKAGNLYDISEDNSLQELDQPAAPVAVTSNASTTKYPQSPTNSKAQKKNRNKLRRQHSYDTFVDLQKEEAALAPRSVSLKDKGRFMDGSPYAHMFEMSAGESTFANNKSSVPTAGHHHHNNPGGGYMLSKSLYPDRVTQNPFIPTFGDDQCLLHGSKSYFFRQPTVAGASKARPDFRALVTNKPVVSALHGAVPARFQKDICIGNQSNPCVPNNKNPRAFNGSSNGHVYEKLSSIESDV
assay text: Cell assay: FDSS Ca2+ influx inhibition in HEK293 cells expressing NR1/NR2B
applied conditions: Binned Activity
property measured: IC50

In [3]: df
Out[3]:
                                   compound  assay_result
0  CC(C(=O)c1ccc(O)cc1)N1C[C@H]2CC(CCc3ccccc3)C[C@H]2C1 (mixture of isomers)   0.1 to 1 µM
1  COc1ccc(C)cc1NC(=O)N1C[C@@H]2C[C@@](O)(c3ccccc3)C[C@@H]2C1       > 10 µM
2  CC(C(=O)c1ccc(O)cc1)N1C[C@H]2C[C@@H](CCc3ccccc3)C[C@H]2C1 (stereo partly shown)   0.1 to 1 µM
3  Cc1ccccc1[C@]1(O)C[C@H]2CN(C(=O)Nc3ccccc3)C[C@H]2C1       > 10 µM

* * *

tested target: NR1/NR2B (Homo sapiens (Human), UniProt Q05586+Q13224)
assay text: Cell assay: FDSS Ca2+ influx inhibition in HEK293 cells expressing NR1/NR2B
applied conditions: Binned Activity, HEK293 cells expressing NR1/NR2B, Ca2+ influx; binned NR2B NAM IC50
pIC50: −log10 of the molar value.
The compounds listed here are annotated with their pIC50.
property measured: pIC50

                                    compound  property_measured  assay_result
 0  Oc1ccc(C(O)CN2C[C@@H]3C[C@](F)(Cc4ccccc4)C[C@@H]3C2)cc1 (mixture of isomers) [Example 311]              pIC50  6.00 to 7.00
 1  Oc1ccc(C(O)CN2C[C@@H]3C[C@@](O)(Cc4ccccc4)C[C@@H]3C2)cc1 (mixture of isomers) [Example 131]              pIC50        > 7.00
 2  Cc1cccc(N2C[C@@H]3C[C@@](O)(c4ccccc4C)C[C@@H]3C2)n1 [Example 86]              pIC50        < 5.00
 3  O=C(CN1C[C@@H]2C[C@@](O)(Cc3ccccc3Cl)C[C@@H]2C1)c1ccc(O)cn1 [Example 234]              pIC50  5.00 to 6.00
 4  O=C(CN1C[C@H]2C[C@@H](Cc3ccccc3)C[C@H]2C1)c1ccc(O)cc1 [Example 303]              pIC50        > 7.00
 5  O=C(CN1C[C@H]2C[C@@H](Cc3ccccc3)C[C@H]2C1)c1ccc(O)c(F)c1 [Example 307]              pIC50        > 7.00
 6  COc1cccc([C@]2(O)C[C@H]3CN(C(=O)Nc4ccccc4)C[C@H]3C2)c1 [Example 29]              pIC50        < 5.00
 7  COc1ccc(C)cc1NC(=O)N1C[C@H]2C[C@@H](c3ccccc3)C[C@H]2C1 [Example 109]              pIC50        < 5.00
 8  Oc1ccc([C@H](O)CN2C[C@@H]3C[C@](O)(Cc4ccccc4)C[C@@H]3C2)cc1 [Example 292]              pIC50  5.00 to 6.00
 9  Cc1ccc(NC(=O)N2C[C@@H]3C[C@@](O)(c4ccccc4)C[C@@H]3C2)cc1 [Example 3]              pIC50        < 5.00
10  COc1cccc(NC(=O)N2C[C@@H]3C[C@@](O)(c4ccccc4C)C[C@@H]3C2)c1              pIC50        < 5.00
11  Cc1cc(F)ccc1C[C@]1(O)C[C@H]2CN(CC(=O)c3ccc(O)cc3)C[C@H]2C1 [Example 250]              pIC50  6.00 to 7.00
12  O=C(CN1C[C@@H]2C[C@@](O)(Cc3ccccc3)C[C@@H]2C1)c1cccc(-c2cccc(F)c2)c1 [Example 271]              pIC50        < 5.00
13  OC(CN1C[C@@H]2C[C@@](O)(c3ccc(F)cc3)C[C@@H]2C1)c1cccc(C(F)(F)F)c1 (mixture of isomers) [Example 75]              pIC50        < 5.00
14  CC(C)(C)C(=O)Nc1ccc(C(O)CN2C[C@@H]3C[C@@](O)(Cc4ccccc4)C[C@@H]3C2)cn1 (mixture of isomers) [Example 286]              pIC50        < 5.00

* * *

tested target: NR1/NR2B (Homo sapiens (Human), UniProt Q05586+Q13224)
assay text: Cell assay: FDSS Ca2+ influx inhibition in HEK293 cells expressing NR1/NR2B
applied conditions: Binned Activity, HEK293 cells expressing NR1/NR2B, Ca2+ influx; binned NR2B NAM IC50
The compounds listed here are annotated with their IC50.
property measured: IC50

In [3]: df
Out[3]:
                                    compound  assay_result
 0  O=C(CN1C[C@@H]2C[C@@](O)(Cc3ccc(C(F)(F)F)cc3)C[C@@H]2C1)c1ccc(O)cc1   0.1 to 1 µM
 1  COc1ncc(-c2ccc(C(=O)CN3C[C@@H]4C[C@@](O)(Cc5ccccc5)C[C@@H]4C3)cc2)cn1       > 10 µM
 2  OC(CN1C[C@@H]2C[C@@](O)(Cc3ccccc3)C[C@@H]2C1)c1cccc(C(F)(F)F)c1 (mixture of isomers)       > 10 µM
 3  Oc1ccc([C@H](O)CN2C[C@@H]3C[C@@](O)(Cc4ccccc4)C[C@@H]3C2)cc1F      < 0.1 µM
 4  O=C(CN1C[C@@H]2C[C@@](O)(Cc3ccc(F)cc3F)C[C@@H]2C1)c1ccc(O)cn1    1 to 10 µM
 5  COc1cccc([C@]2(O)C[C@H]3CN(C(=O)Nc4cccnc4)C[C@H]3C2)c1       > 10 µM
 6  COc1cccc(C(O)CN2C[C@H]3C[C@@H](c4ccccc4)C[C@H]3C2)c1 (mixture of isomers)       > 10 µM
 7  O=C(CN1C[C@@H]2C[C@@](O)(Cc3ccccc3)C[C@@H]2C1)c1ccc(=O)[nH]n1       > 10 µM
 8  C[C@@H](NC(=O)N1C[C@@H]2C[C@@](O)(c3ccccc3)C[C@@H]2C1)c1ccc(Cl)cc1       > 10 µM
 9  CC(O)(CN1CC2CC(O)(Cc3ccccc3)CC2C1)c1ccc(O)cc1 (racemic)      < 0.1 µM
10  COc1ccc(-c2cccc(C(=O)CN3C[C@@H]4C[C@@](O)(Cc5ccccc5)C[C@@H]4C3)c2)cc1       > 10 µM
11  OC(CN1C[C@@H]2C[C@@](O)(c3ccc(F)cc3)C[C@@H]2C1)c1ccc(Cl)cc1Cl (mixture of isomers)       > 10 µM
12  O=C(CN1C[C@@H]2C[C@@](O)(Cc3ccccc3)C[C@@H]2C1)c1ccc(O)c(F)n1       > 10 µM
13  COc1cccc([C@]2(O)C[C@H]3CN(CC(=O)c4ccccc4)C[C@H]3C2)c1       > 10 µM
14  COc1cccc(C[C@]2(O)C[C@H]3CN(CC(=O)c4ccc(O)cc4)C[C@H]3C2)c1      < 0.1 µM

* * *

The compounds listed here are annotated with their IC50.
tested target: NR1/NR2B (Homo sapiens (Human), UniProt Q05586+Q13224)
assay text: Cell assay: FDSS Ca2+ influx inhibition in HEK293 cells expressing NR1/NR2B;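 note: Fluo-8 Ca2+ signal read on Hamamatsu FDSS 6000 after glutamate, glycine and Ca2+ challenge following 10 min compound preincubation, end/baseline fluorescence ratio compared with MK801 control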
applied conditions: Binned Activity, HEK293 cells expressing NR1/NR2B, Ca2+ influx; binned NR2B NAM IC50
property measured: IC50

In [3]: df
Out[3]:
                                    compound  property_measured  assay_result
 0  COc1ccccc1CNC(=O)N1C[C@H]2C[C@@H](c3ccccc3)C[C@H]2C1 [Example 112]               IC50       > 10 µM
 1  O=C(CN1C[C@@H]2CN(Cc3ccccc3)C[C@@H]2C1)c1ccc(O)cc1 [Example 326]               IC50   0.1 to 1 µM
 2  Oc1ccc(C(O)CN2C[C@H]3C[C@@H](c4ccccc4)C[C@H]3C2)cc1 (some centres unmarked) [Example 115]               IC50       > 10 µM
 3  COc1ccc(C(=O)CN2C[C@@H]3C[C@@](O)(Cc4ccccc4)C[C@@H]3C2)cc1 [Example 132]               IC50       > 10 µM
 4  CC(C)(C)c1ccc([C@]2(O)C[C@H]3CN(CC(O)c4cccc(F)c4)C[C@H]3C2)cc1 (mixture of isomers) [Example 71]               IC50       > 10 µM
 5  O=C(CN1C[C@@H]2C[C@@](O)(Cc3ccccc3)C[C@@H]2C1)c1ccc(Cl)nc1 [Example 155]               IC50       > 10 µM
 6  O=C(CN1C[C@@H]2CC(O)(CCc3ccccc3)C[C@@H]2C1)c1ccc(-c2cccc(F)c2)cc1 (some centres unmarked) [Example 270]               IC50       > 10 µM
 7  Oc1ccc([C@@H](O)CN2C[C@@H]3C[C@@](O)(Cc4ccccc4)C[C@@H]3C2)cc1 [Example 136]               IC50      < 0.1 µM
 8  CO[C@@]1(Cc2ccccc2)C[C@H]2CN(CC(=O)c3ccc(O)cc3)C[C@H]2C1 [Example 174]               IC50      < 0.1 µM
 9  O=C(CN1C[C@@H]2C[C@@](O)(Cc3ccccc3)C[C@@H]2C1)c1ccc(-c2ccc(F)cc2)cc1 [Example 262]               IC50       > 10 µM
10  COc1cccc(NC(=O)N2C[C@@H]3C[C@@](O)(c4ccc(C(C)(C)C)cc4)C[C@@H]3C2)c1 [Example 51]               IC50       > 10 µM
11  O=C(CN1C[C@@H]2C[C@@](O)(Cc3ccccc3)C[C@@H]2C1)c1cccc(-c2ccc(F)cc2)c1 [Example 274]               IC50       > 10 µM
12  Cc1cccc(-c2ccc(C(=O)CN3C[C@@H]4C[C@@](O)(Cc5ccccc5)C[C@@H]4C3)cc2)c1 [Example 264]               IC50       > 10 µM
13  O=C(COc1ccc(C(=O)CN2C[C@@H]3C[C@@](O)(Cc4ccc(F)cc4)C[C@@H]3C2)cc1F)c1ccc(O)c(F)c1 [Example 173]               IC50       > 10 µM
